# Tested on: 188146-221-R-J1-PDC complex spheroid viability;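 also: spheroids exposed to compounds for seven days; 100% = DMSO vehicle control viability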
# assay_protocol: Anticancer human tumor 188146-221-R-J1-PDC patient-derived colon adenocarcinoma cell line growth inhibition [POLQ]
# test_context: second compound 3.16 µM; first compound 0.001 µM; hits give low values
# Experimental: Multicellular complex tumor spheroid response to Polymerase (POL) inhibitors (novobiocin, ART-558, RP6685) in combination with a variety of drugs and investigational agents in selected tumor cell lines The POL inhibitors (novobiocin, ART-558, and RP6685) were evaluated both individually and in combination with standard of care and investigational anticancer small molecules within a complex spheroid model of solid tumors. . […]
# viability, T/C per entry
Number in %, nothing else.

Answered examples (5):
# molecule, measured_quantity, test_value
data = [
    ("CC[C@@]1(O)C(=O)OCc2c1cc1n(c2=O)Cc2cc3c(CN(C)C)c(O)ccc3nc2-1 + Cc1cccc(N(C)C(=O)C2C(O)CCN2c2nc(C)cc(C(F)(F)F)c2C#N)c1", "viability, T/C", 100),
    ("CC[C@@]1(O)C(=O)OCc2c1cc1n(c2=O)Cc2cc3c(CN(C)C)c(O)ccc3nc2-1 + Nc1ccc(C#CCN(C(=O)Cc2ncc(C(F)(F)F)cc2C(F)(F)F)c2ccc(F)cc2)nn1", "viability, T/C", 92.9),
    ("Cn1ncnc1[C@H]1c2n[nH]c(=O)c3cc(F)cc(c23)N[C@@H]1c1ccc(F)cc1 + Nc1ccc(C#CCN(C(=O)Cc2ncc(C(F)(F)F)cc2C(F)(F)F)c2ccc(F)cc2)nn1", "viability, T/C", 99.3),
    ("Cn1ncnc1[C@H]1c2n[nH]c(=O)c3cc(F)cc(c23)N[C@@H]1c1ccc(F)cc1 + COC1C(OC(N)=O)C(O)C(Oc2ccc3c(O)c(NC(=O)c4ccc(O)c(CC=C(C)C)c4)c(=O)oc3c2C)OC1(C)C", "viability, T/C", 103),
    ("Cn1ncnc1[C@H]1c2n[nH]c(=O)c3cc(F)cc(c23)N[C@@H]1c1ccc(F)cc1 + Cc1cccc(N(C)C(=O)C2C(O)CCN2c2nc(C)cc(C(F)(F)F)c2C#N)c1", "viability, T/C", 105),
]

[in] So what viability, T/C did CC[C@@]1(O)C(=O)OCc2c1cc1n(c2=O)Cc2cc3c(CN(C)C)c(O)ccc3nc2-1 + COC1C(OC(N)=O)C(O)C(Oc2ccc3c(O)c(NC(=O)c4ccc(O)c(CC=C(C)C)c4)c(=O)oc3c2C)OC1(C)C get with 188146-221-R-J1-PDC complex spheroid viability?
[out] 102
